Molecular target: recombinant human MetAP-3 (Homo sapiens)
Construct: The coding region of hMetAP-3 was also cloned into the EcoRI/HindIII sites of the pET43a vector and expressed as a fusion protein; NusA (N, cleaved yes); 6xHis (N, cleaved yes)
Sequence (Q6UB28 20-335): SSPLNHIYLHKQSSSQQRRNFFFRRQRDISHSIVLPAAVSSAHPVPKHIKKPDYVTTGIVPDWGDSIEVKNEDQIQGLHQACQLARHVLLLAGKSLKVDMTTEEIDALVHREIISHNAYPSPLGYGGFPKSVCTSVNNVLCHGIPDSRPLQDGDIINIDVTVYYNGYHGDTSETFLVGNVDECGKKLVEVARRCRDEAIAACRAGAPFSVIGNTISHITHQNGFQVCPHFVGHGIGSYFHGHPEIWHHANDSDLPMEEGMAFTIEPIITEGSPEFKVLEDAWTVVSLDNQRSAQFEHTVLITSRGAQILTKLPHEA
Assay: Methionine aminopeptidase activity assay (methionine release from tripeptide, coupled L-amino acid oxidase/Amplex Red)
Settings: read-out: Fumagillin IC50
Metric: IC50

Asked: For the compound CO[C@@H]1[C@H](OC(=O)/C=C/C=C/C=C/C=C/C(=O)O)CC[C@]2(CO2)[C@H]1[C@@]1(C)O[C@@H]1CC=C(C)C , give its reported IC50.
Given back: > 500 µM

====

Molecular target: MetAP-2 (Homo sapiens, UniProt P50579)
Sequence (P50579 whole entry): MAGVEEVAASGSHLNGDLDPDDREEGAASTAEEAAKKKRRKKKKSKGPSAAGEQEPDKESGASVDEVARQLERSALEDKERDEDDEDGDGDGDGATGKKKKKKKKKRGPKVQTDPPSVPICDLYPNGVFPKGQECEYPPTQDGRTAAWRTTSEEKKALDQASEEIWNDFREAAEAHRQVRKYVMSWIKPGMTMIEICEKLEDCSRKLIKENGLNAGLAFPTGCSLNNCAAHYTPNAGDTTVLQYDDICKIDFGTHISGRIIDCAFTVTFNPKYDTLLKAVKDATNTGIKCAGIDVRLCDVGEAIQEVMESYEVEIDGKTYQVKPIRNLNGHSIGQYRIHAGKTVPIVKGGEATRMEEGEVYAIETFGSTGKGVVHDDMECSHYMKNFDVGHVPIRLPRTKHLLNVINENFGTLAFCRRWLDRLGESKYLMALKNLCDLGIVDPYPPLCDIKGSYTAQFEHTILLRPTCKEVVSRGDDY
Metric: IC50

Asked: Tell me its IC50 given CO[C@@H]1[C@H](OC(=O)/C=C/C=C/C=C/C=C/C(=O)O)CC[C@]2(CO2)[C@H]1[C@@]1(C)O[C@@H]1CC=C(C)C as the entry.
Given back: 5 nM

Ref: patent US6953577B2
